# assay.notes: NCI Yeast Anticancer Drug Screen. Data for the mec2-1 strain (AID 157)
# assay.setup: S. cerevisiae mec2-1 strain, at 50.0 µM, stronger effect = higher value
About 79,000 compounds went through this panel and 15% of them were active in at least one assay; those are over-represented in the sample as a whole.
The following molecules are shown together with reported growth inhibition values.
All answers are understood in %, so give the number only.

Exercise: // query growth inhibition value for entry O=C(NP(=O)(O)NC(Cc1ccccc1)C(=O)O)OCc1ccccc1 (stereo unspecified)
Solution: -6.65

Exercise: // query growth inhibition value for entry CCOc1cn(C2OC(CO)C(O)C2O)c(=O)[nH]c1=O (stereo unspecified)
Solution: -28.4

###

# assay.notes: NCI Yeast Anticancer Drug Screen. Data for the mec2-1 strain (AID 157)
# assay.setup: S. cerevisiae mec2-1 strain, at 50.0 µM, stronger effect = higher value
The panel holds about 79,000 compounds, 15% with a hit somewhere; the sample as a whole holds those more often.
The following compounds are shown together with reported growth inhibition values.
All answers are understood in %, so give the number only.

>>> reported_result("CC1(C)[C@H]2Cc3c(ccc4c3C(=O)OC4=O)[C@@H]1C2")
-3.9
>>> reported_result("O=C1CCC(c2nc3ccccc3o2)C(=O)N1 (configuration not stated)")
-20.5
>>> reported_result("COCC(OC)C(Cl)C(=O)Nc1ccc(Br)cc1 (configuration not stated)")
31.1

Exercise: // query growth inhibition value for entry CC(=O)C1=C2CCC3C(CCC4CC(O)CCC43C)C2CC1 (configuration not stated)
Solution: -3.35

Exercise: // query growth inhibition value for entry CCCCCCCCCCCCCCCCCC[N+]1(C)CCOCC1
Solution: 99.5

###

# assay.notes: NCI Yeast Anticancer Drug Screen. Data for the rad50 strain (AID 155);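 note: 0% = growth of vehicle-only cultures of the same strain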
# assay.setup: S. cerevisiae rad50 strain growth inhibition; at 50.0 µM; stronger effect = higher value
About 79,000 compounds went through this panel and 15% of them were active in at least one assay; those are over-represented in the sample as a whole.
property.name: growth inhibition (%)
All answers are understood in %, so give the number only.

Below, each entry is followed by its recorded growth inhibition result.
>>> reported_result("CC(=O)Nc1ccc(S(=O)(=O)N2c3ccccc3Sc3ccccc32)cc1")
8.95
>>> reported_result("CCNS(=O)(=O)c1ccccc1")
-8.55
>>> reported_result("O=[n+]1ccn([O-])c2cc(Cl)ccc21")
13.6
>>> reported_result("COc1cc2cc(C)c(C)cc2cc1OC")
-5.8
>>> reported_result("COc1ccc2c(c1)C/C(=C\\c1cccc3ccccc13)C2=O")
-51.9

Exercise: // query growth inhibition value for entry CCOC(=O)c1c2cccccc-2nc1Nc1cccc2c(C)ccnc12
Solution: 11.7

Exercise: // query growth inhibition value for entry CCN(CC)c1ccc2cc(C(=O)NC(=O)Oc3ccccc3)c(=O)oc2c1
Solution: 25.1

Exercise: // query growth inhibition value for entry Cc1ccc(S(=O)(=O)N/N=C/c2ccccc2)cc1
Solution: 5.7

Exercise: // query growth inhibition value for entry C=C1C(=O)O[C@H]2[C@H]1CC(=O)/C(C)=C\CC[C@@]1(C)O[C@@H]21
Solution: 29.2

Exercise: // query growth inhibition value for entry CCCCC(CC)COCCC(=O)O (stereo not drawn)
Solution: -9.55

Exercise: // query growth inhibition value for entry O=C(Oc1ccc[nH]c1=O)C1CC1
Solution: 17.9

Exercise: // query growth inhibition value for entry CCc1nnc2sc(=S)[nH]n12
Solution: -7.65

Exercise: // query growth inhibition value for entry Cc1cc(C)c(F)c(C)c1N
Solution: -32.5
